- assayed target: Kappa-type opioid receptor (Homo sapiens, UniProt P41145)
- Sequence (P41145 whole entry): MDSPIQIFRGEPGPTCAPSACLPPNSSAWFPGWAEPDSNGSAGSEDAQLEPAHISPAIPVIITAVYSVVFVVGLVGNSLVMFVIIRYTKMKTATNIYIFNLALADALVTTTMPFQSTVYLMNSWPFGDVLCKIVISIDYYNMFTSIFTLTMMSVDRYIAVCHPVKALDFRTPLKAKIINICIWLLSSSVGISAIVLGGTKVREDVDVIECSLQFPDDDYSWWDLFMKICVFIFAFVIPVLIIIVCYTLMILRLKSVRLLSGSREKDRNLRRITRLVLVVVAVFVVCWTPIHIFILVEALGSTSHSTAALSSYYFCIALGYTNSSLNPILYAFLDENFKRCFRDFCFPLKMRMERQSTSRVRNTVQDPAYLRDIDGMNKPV
- test method notes: GPCRScan assay: inhibition of KOR
- Set-up: radioligand conc. used [nm] 0.6 – 1.2, parental cells stable HEK
- condition details: read-out: Ki
endpoint: Ki

Record CCCCN(CCCC)C(=O)CN1C[C@@H](c2cc(OC)c3c(c2)OCO3)[C@H](C(=O)O)[C@H]1CC(C)(C)CCC , field Ki: 2780 nM

----------
- assayed target: Sodium channel (site 2) (Homo sapiens, UniProt P35498+P35499+Q01118+Q14524+Q15858+Q99250+Q9NY46+Q9UI33+Q9UQD0+Q9Y5Y9)
- test method notes: Na+ channel (site 2) CEREP ligand profiling
- Format: protein assay
- condition details: compound concentration 10 uM
endpoint: inhibition at 10 µM

Briefly, inhibition at 10 µM measured for CCCCN(CCCC)C(=O)CN1C[C@H](c2cc(OC)c3c(c2)OCO3)[C@@H](C(=O)O)[C@@H]1CC(C)(C)CCC [ABT-546] : < 10% (not active)
